TESTED TARGET: strychnine insensitive glycine binding site located on the NMDA receptor complex (Rattus norvegicus)
EXPERIMENTAL DETAILS: biochemical
Counter-ions that a name gives are not always drawn.
ASSAY METRIC: Ki (nM)

Example molecules with recorded Ki:
O=C(/C=C/c1c(C(=O)[O-])[nH]c2cc(Cl)cc(Cl)c12)NC12CC3CC(CC(C3)C1)C2.[Na+] [sodium salt] ... 63.1
O=C(/C=C/c1c(C(=O)O)[nH]c2cc(Cl)cc(Cl)c12)N[C@@H]1C[C@H]2CC[C@@H]1C2 (relative stereo) [Example 10b, sodium salt] ... 20

I: O=C(/C=C/c1c(C(=O)O)[nH]c2cc(Cl)cc(Cl)c12)NC12CC3CC(CC1C3)C2 [Example 14, sodium salt]
II: O=C(/C=C/c1c(C(=O)O)[nH]c2cc(Cl)cc(Cl)c12)N[C@H]1C[C@H]2CC[C@@H]1C2 (relative stereo) [Example 11, sodium salt]
III: CC1(C)[C@@H]2CC[C@@]1(C)[C@@H](NC(=O)/C=C/c1c(C(=O)O)[nH]c3cc(Cl)cc(Cl)c13)C2 [Example 16, sodium salt]
**Query** Place the items in sequence of falling Ki. Put the labels in the requested order and list them out.
**Result** III, I, II
